Test protocol: Portal bioavailability in P-gp deficient CF-1 mouse at 0.47 mg/kg through oral gavage
Type: ADME, organism-based
Test conditions: in vivo
Assay readout: Fg

Challenge: What measured Fg goes with CN(C)C(=O)C(CCN1CCC(O)(c2ccc(Cl)cc2)CC1)(c1ccccc1)c1ccccc1 [LOPERAMIDE] ?
Response given: 1.1%

---

Test protocol: AUC in P-gp competent CF-1 mouse plasma at 0.23 mg/kg through systemic exposure
Assay type: ADME, organism-based
Set-up: dose 0.23 mg/kg
Assay readout: AUC (ng·h/mL)
# unit: ng·h/mL | format: bare number

Challenge: What measured AUC goes with CN(C)C(=O)C(CCN1CCC(O)(c2ccc(Cl)cc2)CC1)(c1ccccc1)c1ccccc1 [LOPERAMIDE] ?
Response given: 0.933

---

Test protocol: AUC in P-gp deficient CF-1 mouse plasma at 0.47 mg/kg through systemic exposure
Format: ADME, organism-based
Set-up: dose 0.47 mg/kg
Assay readout: AUC (ng·h/mL)
# unit: ng·h/mL | format: bare number

Challenge: What measured AUC goes with CN(C)C(=O)C(CCN1CCC(O)(c2ccc(Cl)cc2)CC1)(c1ccccc1)c1ccccc1 [LOPERAMIDE] ?
Response given: 4.33

---

Test protocol: Portal bioavailability in P-gp deficient CF-1 mouse at 0.23 mg/kg through oral gavage
Type: ADME, organism-based
Test conditions: in vivo
Assay readout: Fg (%)
# unit: % | format: bare number

Challenge: What measured Fg goes with CN(C)C(=O)C(CCN1CCC(O)(c2ccc(Cl)cc2)CC1)(c1ccccc1)c1ccccc1 [LOPERAMIDE] ?
Response given: 0.4

---

Test protocol: Portal bioavailability in P-gp competent CF-1 mouse at 0.23 mg/kg through oral gavage
Type: ADME, organism-based
Test conditions: in vivo
Assay readout: Fg (%)
# unit: % | format: bare number

Challenge: What measured Fg goes with CN(C)C(=O)C(CCN1CCC(O)(c2ccc(Cl)cc2)CC1)(c1ccccc1)c1ccccc1 [LOPERAMIDE] ?
Response given: 2.6
